The measurements presented in this section are drawn from patent US20200079833A1.

# TEST TARGET: GLP-1 receptor (GLP-1R), primary cAMP assay cell line (human, UniProt P43220 24-463)
# ASSAY: cell-based or functional assay
Starred links: 1 amine or outer side, 2 acyl side, 3 side chain; linkers in the order of their positions; H or OH if unused. Non-standard residues stand in square brackets, D forms with d. Groups on a side chain read outwards from the residue. Primed or numbered codes have the meaning given here. No end group written: not given here. *: point of attachment. γGlu = O=C(O)[C@H](CCC(=O)[*:2])N[*:1]; αMeF = C[C@](N)(Cc1ccccc1)C(=O)O; αMeK = C[C@](N)(CCCCN)C(=O)O; Lauroyl = CCCCCCCCCCCC(=O)*; αMeS = C[C@](N)(CO)C(=O)O; PEG2′ = not defined here; Aib = CC(C)(N)C(=O)O
PROPERTY LABEL: cAMP Primary assay EC50, n2 (nM)

Below, each entry is followed by its recorded cAMP Primary assay EC50, n2 result.
# BINDER, cAMP Primary assay EC50, n2 / nM
records = [
    ("H[Aib]EGS[αMeF]TSDV[αMeS]SYK([PEG2′-PEG2′-γGlu-Lauroyl])EK([PEG2′-PEG2′-γGlu-Lauroyl])EAA[αMeK]EFIAK([PEG2′-PEG2′-γGlu-Lauroyl])VVEGG-NH2 [SEQ ID NO: 467]", 0.0615),
    ("H[Aib]EGS[αMeF]TSDVSK([PEG2′-PEG2′-γGlu-Lauroyl])YLEGK([PEG2′-PEG2′-γGlu-Lauroyl])AA[αMeK]EFIAK([PEG2′-PEG2′-γGlu-Lauroyl])VVEGG-NH2 [SEQ ID NO: 460]", 0.0888),
    ("H[Aib]EGS[αMeF]TSDV[αMeS]SK([PEG2′-PEG2′-γGlu-Lauroyl])LEGEK([PEG2′-PEG2′-γGlu-Lauroyl])A[αMeK]EFIAK([PEG2′-PEG2′-γGlu-Lauroyl])VVEGG-NH2 [SEQ ID NO: 465]", 0.133),
    ("H[Aib]EGS[αMeF]TSDK([PEG2′-PEG2′-γGlu-Lauroyl])SSYLEGEK([PEG2′-PEG2′-γGlu-Lauroyl])A[αMeK]EFIAK([PEG2′-PEG2′-γGlu-Lauroyl])VVEGG-NH2 [SEQ ID NO: 457]", 0.156),
    ("H[Aib]EGS[αMeF]TSDV[αMeS]SK([PEG2′-PEG2′-γGlu-Lauroyl])LEGEK([PEG2′-PEG2′-γGlu-Lauroyl])A[αMeK]EFIAFK([PEG2′-PEG2′-γGlu-Lauroyl])VEGG-NH2 [SEQ ID NO: 481]", 0.149),
    ("H[Aib]EGS[αMeF]TSDV[αMeS]SYK([PEG2′-PEG2′-γGlu-Lauroyl])EGEAA[αMeK]K([PEG2′-PEG2′-γGlu-Lauroyl])FIK([PEG2′-PEG2′-γGlu-Lauroyl])FVVEGG-NH2 [SEQ ID NO: 454]", 0.0652),
    ("H[Aib]EGS[αMeF]TSDV[αMeS]SK([PEG2′-PEG2′-γGlu-Lauroyl])LEK([PEG2′-PEG2′-γGlu-Lauroyl])EAA[αMeK]EFIAFK([PEG2′-PEG2′-γGlu-Lauroyl])VEGG-NH2 [SEQ ID NO: 479]", 0.239),
    ("H[Aib]EGS[αMeF]TSDVSK([PEG2′-PEG2′-γGlu-Lauroyl])YLEGK([PEG2′-PEG2′-γGlu-Lauroyl])AA[αMeK]EFIK([PEG2′-PEG2′-γGlu-Lauroyl])FVVEGG-NH2 [SEQ ID NO: 444]", 0.162),
    ("H[Aib]EGS[αMeF]TSDK([PEG2′-PEG2′-γGlu-Lauroyl])SSYLEGEK([PEG2′-PEG2′-γGlu-Lauroyl])A[αMeK]EFIK([PEG2′-PEG2′-γGlu-Lauroyl])FVVEGG-NH2 [SEQ ID NO: 441]", 0.241),
    ("H[Aib]EGS[αMeF]TSDK([PEG2′-PEG2′-γGlu-Lauroyl])SSYLEGEAA[αMeK]K([PEG2′-PEG2′-γGlu-Lauroyl])FIAFK([PEG2′-PEG2′-γGlu-Lauroyl])VEGG-NH2 [SEQ ID NO: 474]", 0.3),
]

A. H[Aib]EGS[αMeF]TSDV[αMeS]SK([PEG2′-PEG2′-γGlu-Lauroyl])LEGEAA[αMeK]K([PEG2′-PEG2′-γGlu-Lauroyl])FIK([PEG2′-PEG2′-γGlu-Lauroyl])FVVEGG-NH2 [SEQ ID NO: 450]
B. H[Aib]EGS[αMeF]TSDK([PEG2′-PEG2′-γGlu-Lauroyl])SSYLEGK([PEG2′-PEG2′-γGlu-Lauroyl])AA[αMeK]EFIAFK([PEG2′-PEG2′-γGlu-Lauroyl])VEGG-NH2 [SEQ ID NO: 472]
C. H[Aib]EGS[αMeF]TSDK([PEG2′-PEG2′-γGlu-Lauroyl])SSYLEGEAA[αMeK]K([PEG2′-PEG2′-γGlu-Lauroyl])FIK([PEG2′-PEG2′-γGlu-Lauroyl])FVVEGG-NH2 [SEQ ID NO: 442]
D. H[Aib]EGS[αMeF]TSDK([PEG2′-PEG2′-γGlu-Lauroyl])SSYLEGEK([PEG2′-PEG2′-γGlu-Lauroyl])A[αMeK]EFIAFK([PEG2′-PEG2′-γGlu-Lauroyl])VEGG-NH2 [SEQ ID NO: 473]
Order the records by cAMP Primary assay EC50, n2, with each subsequent value no larger than the one before. Please write the labels in the order that was asked for.
D, B, C, A
